The molecules listed here are annotated with their Papp A→B at 90 min.
- testDescription: MDCK monolayer membrane permeability (A→B transport)
- Assay type: in vitro ADME, canine
- recordedConditions: dog, apical to basolateral, MDCK monolayer, 37° C., 90 min, LC/MS, read-out: MDCK Papp(A − B)
Square brackets hold non-standard residues; d marks the D form. Peptide text beside a SMILES is read from it. * marks the point of attachment. ξ: configuration not given here. Phe(3-CF3) = N[C@@H](Cc1cccc(C(F)(F)F)c1)C(=O)O; NMeF = CN[C@@H](Cc1ccccc1)C(=O)O; 3Pal = N[C@@H](Cc1cccnc1)C(=O)O; Cha = N[C@@H](CC1CCCCC1)C(=O)O; Cit = NC(=O)NCCC[C@H](N)C(=O)O; NMeL = CN[C@@H](CC(C)C)C(=O)O; ξP = O=C(O)C1CCCN1; OtBu = CC(C)(C)O*; Sar = CNCC(=O)O
Write down the numeric answer in ×10⁻⁶ cm/s and omit the unit.

molecule	metric	measurement
CC(C)C[C@@H]1NC(=O)CNC(=O)[C@H](CC(N)=O)NC(=O)C2CCCN2C(=O)[C@H]2CCCN2C(=O)[C@H](CCC(=O)OC(C)(C)C)NC(=O)CN(C)C(=O)[C@H](CC2CCCCC2)NC(=O)[C@H](CC(C)C)N(C)C(=O)[C@H](Cc2ccccc2)N(C)C1=O (stereo partly shown) [Compound 11] (cyclo([Cha][Sar]E(OtBu)[dP][ξP]NGL[NMeF][NMeL]))	Papp A→B at 90 min	16.2
CC(C)C[C@@H]1NC(=O)CNC(=O)[C@H](CC(N)=O)NC(=O)C2CCCN2C(=O)[C@H]2CCCN2C(=O)[C@H](CCC(=O)OC(C)(C)C)NC(=O)CN(C)C(=O)[C@H](Cc2cccnc2)NC(=O)[C@H](CC(C)C)N(C)C(=O)[C@H](Cc2ccccc2)N(C)C1=O (stereo partly shown) [Compound 10] (cyclo([3Pal][Sar]E(OtBu)[dP][ξP]NGL[NMeF][NMeL]))	Papp A→B at 90 min	4.8
CC(C)C[C@@H]1NC(=O)CNC(=O)[C@H](CC(N)=O)NC(=O)C2CCCN2C(=O)[C@H]2CCCN2C(=O)[C@H](CCC(=O)OC(C)(C)C)NC(=O)CN(C)C(=O)[C@H](Cc2cccc(C(F)(F)F)c2)NC(=O)[C@H](CC(C)C)N(C)C(=O)[C@H](Cc2ccccc2)N(C)C1=O (stereo partly shown) [Compound 9] (cyclo(E(OtBu)[dP][ξP]NGL[NMeF][NMeL][Phe(3-CF3)][Sar]))	Papp A→B at 90 min	11.3

Turning now to a further molecule:
**Query** Requested field: Papp A→B at 90 min. Item: CC(C)C[C@@H]1NC(=O)CNC(=O)[C@H](CC(N)=O)NC(=O)C2CCCN2C(=O)[C@H]2CCCN2C(=O)[C@H](CCC(=O)OC(C)(C)C)NC(=O)CN(C)C(=O)[C@H](CCCNC(N)=O)NC(=O)[C@H](CC(C)C)N(C)C(=O)[C@H](Cc2ccccc2)N(C)C1=O (stereo partly shown) [Compound 12] (cyclo([Cit][Sar]E(OtBu)[dP][ξP]NGL[NMeF][NMeL]))
**Result** 0.9

###

- testDescription: MDCK monolayer membrane permeability (A→B transport)
- Format: in vitro ADME, canine
- recordedConditions: dog, MDCK A→B, not, read-out: Papp values
Square brackets hold non-standard residues; d marks the D form. Peptide text beside a SMILES is read from it. * marks the point of attachment. ξ: configuration not given here. Phe(3-CF3) = N[C@@H](Cc1cccc(C(F)(F)F)c1)C(=O)O; NMeF = CN[C@@H](Cc1ccccc1)C(=O)O; Cha = N[C@@H](CC1CCCCC1)C(=O)O; NMeL = CN[C@@H](CC(C)C)C(=O)O; ξP = O=C(O)C1CCCN1; OtBu = CC(C)(C)O*; Sar = CNCC(=O)O
metric: Papp A→B at 90 min

compound	metric	measurement
CC(C)C[C@@H]1NC(=O)CNC(=O)[C@H](CC(N)=O)NC(=O)C2CCCN2C(=O)[C@H]2CCCN2C(=O)[C@H](CCC(=O)OC(C)(C)C)NC(=O)CN(C)C(=O)[C@H](Cc2cccc(C(F)(F)F)c2)NC(=O)[C@H](CC(C)C)N(C)C(=O)[C@H](Cc2ccccc2)N(C)C1=O (some centres unmarked) [Compound 9] (cyclo(E(OtBu)[dP][ξP]NGL[NMeF][NMeL][Phe(3-CF3)][Sar]))	Papp A→B at 90 min	> 10 ×10⁻⁶ cm/s

Turning now to a further compound:
**Query** Requested field: Papp A→B at 90 min. Item: CC(C)C[C@@H]1NC(=O)CNC(=O)[C@H](CC(N)=O)NC(=O)C2CCCN2C(=O)[C@H]2CCCN2C(=O)[C@H](CCC(=O)OC(C)(C)C)NC(=O)CN(C)C(=O)[C@H](CC2CCCCC2)NC(=O)[C@H](CC(C)C)N(C)C(=O)[C@H](Cc2ccccc2)N(C)C1=O (some centres unmarked) [Compound 11] (cyclo([Cha][Sar]E(OtBu)[dP][ξP]NGL[NMeF][NMeL]))
**Result** > 10 ×10⁻⁶ cm/s
